Target: Metabotropic glutamate receptor 5 (Homo sapiens)
Assay: Positive allosteric modulation of human mGluR5 expressed in HEK293 cells assessed as increase of L-glutamate-induced calcium mobilization by FLIPR assay
Format: functional, cell-based
Details: read-out: EC50
Sequence (P41594 whole entry): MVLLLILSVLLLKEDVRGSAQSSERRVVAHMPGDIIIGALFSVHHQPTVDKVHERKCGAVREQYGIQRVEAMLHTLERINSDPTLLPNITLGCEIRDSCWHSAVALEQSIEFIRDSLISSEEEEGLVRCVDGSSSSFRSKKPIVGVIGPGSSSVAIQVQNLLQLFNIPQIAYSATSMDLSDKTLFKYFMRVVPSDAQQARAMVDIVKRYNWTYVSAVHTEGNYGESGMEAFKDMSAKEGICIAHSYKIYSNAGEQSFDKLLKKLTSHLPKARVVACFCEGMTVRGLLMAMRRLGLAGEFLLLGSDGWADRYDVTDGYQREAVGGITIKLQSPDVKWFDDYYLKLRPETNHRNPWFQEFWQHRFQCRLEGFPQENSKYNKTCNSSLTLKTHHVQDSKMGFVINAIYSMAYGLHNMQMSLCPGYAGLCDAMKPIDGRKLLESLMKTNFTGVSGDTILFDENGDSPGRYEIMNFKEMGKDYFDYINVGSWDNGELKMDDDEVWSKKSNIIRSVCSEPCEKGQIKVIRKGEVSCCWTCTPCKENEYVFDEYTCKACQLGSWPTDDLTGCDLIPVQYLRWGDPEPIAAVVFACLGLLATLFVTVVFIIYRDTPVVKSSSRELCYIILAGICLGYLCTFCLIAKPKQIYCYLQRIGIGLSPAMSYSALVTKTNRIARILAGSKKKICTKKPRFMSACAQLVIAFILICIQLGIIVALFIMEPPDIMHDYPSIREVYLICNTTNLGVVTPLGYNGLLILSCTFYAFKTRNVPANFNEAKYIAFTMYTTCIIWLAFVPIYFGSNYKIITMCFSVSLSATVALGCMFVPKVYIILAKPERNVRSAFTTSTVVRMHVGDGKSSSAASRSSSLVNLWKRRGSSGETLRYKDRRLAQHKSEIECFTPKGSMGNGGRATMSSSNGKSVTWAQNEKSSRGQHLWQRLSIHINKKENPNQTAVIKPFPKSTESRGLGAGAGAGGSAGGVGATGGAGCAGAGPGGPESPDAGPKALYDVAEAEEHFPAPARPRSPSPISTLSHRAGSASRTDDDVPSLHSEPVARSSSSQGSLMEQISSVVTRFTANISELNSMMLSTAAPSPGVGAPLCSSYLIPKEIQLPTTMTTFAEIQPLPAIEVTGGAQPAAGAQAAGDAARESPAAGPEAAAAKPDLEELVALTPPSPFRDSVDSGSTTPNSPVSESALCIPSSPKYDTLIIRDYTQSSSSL
experimental.endpoint: EC50 (nM)

entry_smiles=O=C1c2ccc(C#Cc3cccc(Cl)c3)nc2CCN1C1CCCC1 experimental_endpoint=EC50 units_symbol=nM result_value=33
entry_smiles=O=C1c2ccc(C#Cc3ccccc3)nc2CCN1C1CCCCC1 experimental_endpoint=EC50 units_symbol=nM result_value=40
entry_smiles=Cc1ccc(C#Cc2ccc3c(n2)CCN(C2CCCC2)C3=O)cc1 experimental_endpoint=EC50 units_symbol=nM result_value=4820

P. COc1cccc(C#Cc2ccc3c(n2)CCN(C2CCCC2)C3=O)c1
Q. Cc1cccc(C#Cc2ccc3c(n2)CCN(C2CCCC2)C3=O)c1
R. Cc1cccc(C#Cc2ccc3c(n2)CCN(C2CCCCC2)C3=O)c1
Reorder: EC50, max to min. Field: ranking. Enter the labels in the order requested.
P, R, Q
(P: 462 nM, R: 36 nM, Q: 7.5 nM)

====

Molecular target: UniProt:P41594
Assay: Negative allosteric modulation of human mGluR5 expressed in HEK293 cells assessed as inhibition of L-glutamate-induced calcium mobilization at 10 uM by FLIPR assay relative to control
Format: functional, cell-based
Sequence (P41594 21-1212 limits assumed): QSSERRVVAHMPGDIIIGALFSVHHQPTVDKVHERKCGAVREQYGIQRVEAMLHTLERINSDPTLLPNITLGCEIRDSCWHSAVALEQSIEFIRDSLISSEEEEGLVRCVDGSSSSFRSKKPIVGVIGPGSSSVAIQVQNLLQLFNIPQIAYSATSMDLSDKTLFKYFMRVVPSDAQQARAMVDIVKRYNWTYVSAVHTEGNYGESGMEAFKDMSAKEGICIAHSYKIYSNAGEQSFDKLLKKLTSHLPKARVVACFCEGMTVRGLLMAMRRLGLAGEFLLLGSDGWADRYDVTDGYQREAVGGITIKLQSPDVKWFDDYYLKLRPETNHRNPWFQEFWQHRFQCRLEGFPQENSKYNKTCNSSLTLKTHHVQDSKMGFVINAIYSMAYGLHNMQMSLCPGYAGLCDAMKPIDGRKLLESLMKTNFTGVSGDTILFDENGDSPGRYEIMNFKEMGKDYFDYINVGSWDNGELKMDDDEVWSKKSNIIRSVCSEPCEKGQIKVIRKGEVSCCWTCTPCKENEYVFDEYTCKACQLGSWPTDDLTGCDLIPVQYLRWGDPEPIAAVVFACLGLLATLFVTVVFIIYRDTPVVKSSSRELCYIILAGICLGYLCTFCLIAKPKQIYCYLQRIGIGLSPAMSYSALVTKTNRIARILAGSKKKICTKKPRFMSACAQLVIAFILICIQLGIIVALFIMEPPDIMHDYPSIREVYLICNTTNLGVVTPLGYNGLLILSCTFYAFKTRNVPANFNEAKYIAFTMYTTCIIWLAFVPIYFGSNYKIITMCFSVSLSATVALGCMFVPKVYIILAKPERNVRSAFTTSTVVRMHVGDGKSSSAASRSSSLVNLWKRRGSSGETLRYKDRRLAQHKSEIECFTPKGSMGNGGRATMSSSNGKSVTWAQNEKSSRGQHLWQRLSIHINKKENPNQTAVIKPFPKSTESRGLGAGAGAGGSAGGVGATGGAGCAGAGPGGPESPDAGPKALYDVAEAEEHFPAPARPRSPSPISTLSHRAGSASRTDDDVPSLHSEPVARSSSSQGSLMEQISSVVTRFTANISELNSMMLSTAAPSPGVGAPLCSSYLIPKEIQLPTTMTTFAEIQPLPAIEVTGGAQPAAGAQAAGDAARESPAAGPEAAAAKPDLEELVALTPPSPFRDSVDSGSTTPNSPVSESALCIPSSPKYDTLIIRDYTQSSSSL
experimental.endpoint: Imax (%)

entry_smiles=CC(C)N1CCc2nc(C#Cc3cccc(Cl)c3)ccc2C1=O study_target=UniProt:P41594 experimental_endpoint=Imax result_value=86

I. CC(C)N1CCc2nc(C#Cc3ccccn3)ccc2C1=O
II. CC(C)N1CCc2nc(C#Cc3ccccc3)ccc2C1=O
I need your help: which of the pair I , II has higher Imax? To answer, give the label that identifies your chosen option.
I

P. CN1CCc2nc(C#Cc3ccccn3)ccc2C1=O
Q. CN1CCc2nc(C#Cc3cccs3)ccc2C1=O
Out of P and Q , name the one with the higher Imax. // respond with label for picked entry
P

====

Biological target: Metabotropic glutamate receptor 5 (Homo sapiens)
Experiment: Negative allosteric modulation of human mGluR5 expressed in HEK293 cells assessed as inhibition of L-glutamate-induced calcium mobilization at 10 uM by FLIPR assay relative to control
Format: functional, cell-based
# Imax listing for each entry below

Which Imax value is on record for CC(C)N1CCc2nc(C#Cc3cccs3)ccc2C1=O ?
78%

Now the same for O=C1c2ccc(C#Cc3ccccn3)nc2CCN1C1CCCCC1
74%

Also CN1CCc2nc(C#Cc3cccc(Cl)c3)ccc2C1=O , if possible.
84%

// repeat for CN1CCc2nc(C#Cc3ccc(Cl)cc3)ccc2C1=O and report
73%

Item: Cc1ccccc1C#Cc1ccc2c(n1)CCN(C)C2=O
80%

Check Cc1cccc(C#Cc2ccc3c(n2)CCN(C)C3=O)c1 too.
86%

Follow-up item: Cc1cccc(C#Cc2ccc3c(n2)CCN(C(C)C)C3=O)c1
88%

Follow-up item: CC(C)N1CCc2nc(C#Cc3ccccc3Cl)ccc2C1=O
61%

Ok, now O=C1c2ccc(C#Cc3ccccn3)nc2CCN1C1CCCC1
80%

Further, for CN1CCc2nc(C#Cc3ccccc3)ccc2C1=O ?
58%

Proceed to CC(C)N1CCc2nc(C#Cc3ccc(Cl)cc3)ccc2C1=O
61%

// next record Cc1ccccc1C#Cc1ccc2c(n1)CCN(C(C)C)C2=O
76%

Can you handle O=C(NC1CCCC1)c1ccc(C#Cc2ccccn2)nc1 next?
90%

Request: COc1cccc(C#Cc2ccc3c(n2)CCN(C(C)C)C3=O)c1
88%

Likewise for COc1cccc(C#Cc2ccc3c(n2)CCN(C)C3=O)c1 ?
88%
